Sourced from patent US10081631B2

Record form. Attribute: pEC50. Fill in for each entry.
System: primary human fibroblasts derived from IPF patients (LL29 cells)
TEST_NAME: Inhibition of fibrosis: TGF-β1-treated primary human fibroblasts from IPF patients (LL29), αSMA staining
Type: cell-based
CONDITION_SET: Fibroblast, 96 h, TGF-β1 20 ng/mL, 4 days, % αSMA-positive cells
pEC50 here is simply -log10 of the concentration when that concentration is written in mol/L.

Consider the molecule shown here: FC1(F)CCN(Cc2cncc(-c3ccc4[nH]nc(-c5nc6c(-c7cccs7)nccc6[nH]5)c4c3)c2)C1 [Compound 311] What is its recorded pEC50?
7.08

Item: CC(C)Nc1cncc(-c2ccc3[nH]nc(-c4nc5c(-c6cc(F)cc(NCCN(C)C)c6)nccc5[nH]4)c3c2)c1 [Compound 428]
8.05

Item: O=C(Nc1cncc(-c2ccc3[nH]nc(-c4nc5c(N6CCCCC6)nccc5[nH]4)c3c2)c1)C1CC1 [Compound 175]
6.94

Item: CC(C)(C)C(=O)Nc1cncc(-c2ccc3[nH]nc(-c4nc5c(-c6ccc(F)cc6)nccc5[nH]4)c3c2)c1 [Compound 34]
8.05

Item: CC(C)C(=O)Nc1cncc(-c2ccc3[nH]nc(-c4nc5c(-c6ccccc6F)nccc5[nH]4)c3c2)c1 [Compound 61]
7.10

Item: O=C(Nc1cncc(-c2ccc3[nH]nc(-c4nc5c(-c6ccsc6)nccc5[nH]4)c3c2)c1)c1ccccc1 [Compound 245]
7.77

Item: Oc1cncc(-c2ccc3[nH]nc(-c4nc5c(-c6cccc(F)c6)nccc5[nH]4)c3c2)c1 [Compound 1781]
7.10

Item: Fc1ccc(-c2nccc3[nH]c(-c4n[nH]c5ccc(-c6cncnc6)cc45)nc23)cc1 [Compound 52]
6.27

Item: CC(C)C(=O)Nc1cncc(-c2ccc3[nH]nc(-c4nc5c(-c6cccnc6)nccc5[nH]4)c3c2)c1 [Compound 87]
6.53

Item: CN1CCN(c2nccc3[nH]c(-c4n[nH]c5ccc(-c6cncc(CN7CCCCC7)c6)cc45)nc23)CC1 [Compound 223]
5.95

Item: Fc1cccc(-c2nccc3[nH]c(-c4n[nH]c5ccc(C6CCNCC6)cc45)nc23)c1 [Compound 1769]
6.17

Item: CN1CCN(c2nccc3[nH]c(-c4n[nH]c5ccc(-c6cncc(NC(=O)CC(C)(C)C)c6)cc45)nc23)CC1 [Compound 224]
5.96

Item: CN(C)c1cncc(-c2ccc3[nH]nc(-c4nc5c(-c6cccc(F)c6)nccc5[nH]4)c3c2)c1 [Compound 7]
8.05

Item: Cc1ccncc1-c1ccc2[nH]nc(-c3nc4c(-c5cc(F)cc(CNS(C)(=O)=O)c5)nccc4[nH]3)c2c1 [Compound 395]
7.59

###

Record form. Attribute: pIC50. Fill in for each entry.
Test system: Wnt activity (Sp5-Luc reporter, SW480 colon carcinoma cells)
TEST_NAME: Screening assay for Wnt activity: Sp5-Luc reporter gene assay in SW480 cells
Type: cell-based
CONDITION_SET: Homo sapiens, 42 h incubation, luminescence
pIC50 here is simply -log10 of the concentration when that concentration is written in mol/L.

Consider the molecule shown here: FC1(F)CCN(Cc2cncc(-c3ccc4[nH]nc(-c5nc6c(N7CCCCC7)nccc6[nH]5)c4c3)c2)C1 What is its recorded pIC50?
7.17

Item: CCCC(=O)Nc1cncc(-c2ccc3[nH]nc(-c4nc5c(-c6ccncc6)nccc5[nH]4)c3c2)c1
6.99

Item: O=C(Nc1cncc(-c2ccc3[nH]nc(-c4nc5c(-c6ccc(F)cc6)nccc5[nH]4)c3c2)c1)C1CCC1
8.00

Item: CC(C)CC(=O)Nc1cncc(-c2ccc3[nH]nc(-c4nc5c(-c6cccc(F)c6)nccc5[nH]4)c3c2)c1
8.30

Item: O=C(Nc1cncc(-c2ccc3[nH]nc(-c4nc5c(-c6cccs6)nccc5[nH]4)c3c2)c1)C1CC1
8.40

Item: Cc1cn(-c2nccc3[nH]c(-c4n[nH]c5ccc(-c6cncc(NC(=O)C(C)(C)C)c6)cc45)nc23)cn1
8.30

Item: CN(C)CCNc1cc(F)cc(-c2nccc3[nH]c(-c4n[nH]c5ccc(-c6cncc(CNCC7CCCC7)c6)cc45)nc23)c1
6.27

Item: CC(C)Nc1cncc(-c2ccc3[nH]nc(-c4nc5c(-c6cccnc6)nccc5[nH]4)c3c2)c1
8.40

Item: CN1CCN(c2nccc3[nH]c(-c4n[nH]c5ccc(-c6cncc(F)c6)cc45)nc23)CC1
6.36

Item: CN1CCN(c2nccc3[nH]c(-c4n[nH]c5ccc(-c6cncc(N)c6)cc45)nc23)CC1
7.01

Item: CC(C)C(=O)Nc1cncc(-c2ccc3[nH]nc(-c4nc5c(-c6cccs6)nccc5[nH]4)c3c2)c1
7.51

Item: Nc1cncc(-c2ccc3[nH]nc(-c4nc5c(-c6ccccc6F)nccc5[nH]4)c3c2)c1
8.39

Item: CC(C)(C)CC(=O)Nc1cncc(-c2ccc3[nH]nc(-c4nc5c(-c6ccccc6F)nccc5[nH]4)c3c2)c1
7.70

Item: FC1(F)CCN(Cc2cncc(-c3ccc4[nH]nc(-c5nc6c(-c7cccs7)nccc6[nH]5)c4c3)c2)C1
6.49
